Experimental Target: human B1R (Homo sapiens)
Construct: expressed in transfected cells; host or cells: CHO K1 cells
Experiment Description: FLIPR Ca2+ functional study on bradykinin receptor 1 (hB1R CHO K1 cells)
Assay type: cell-based
Experimental Conditions: % inhibition human B1R at 10 μM, read-out: % inh. (hum. B1R) 10 μM
Measurement Name: inhibition at 10 µM (%)
Provide the reading as a plain figure in %.

Examples with answers:
Compound	Experimental Target	inhibition at 10 µM [%]
COc1cc(C)c(S(=O)(=O)N2CCCCC2COc2nccc(N3CCC4(CCN(Cc5ccc(F)cc5)C4=O)CC3)n2)c(C)c1 (stereo not shown) [G_CC-039]	human B1R (Homo sapiens)	58
Cc1cccc(Cl)c1S(=O)(=O)N(CCOc1ccnc(N2CCC3(CCN(c4ccncc4)CC3)CC2)n1)C1CC1 [Example H-006]	human B1R (Homo sapiens)	64
COc1cc(C)c(S(=O)(=O)N2CCC[C@H]2COc2nccc(N3CCC4(CC3)C(=O)NCN4c3ccccc3)n2)c(C)c1 [G_CC-035]	human B1R (Homo sapiens)	-1
COc1cc(C)c(S(=O)(=O)N(C)CCOc2nccc(N3CCN(C4CCN(C)CC4)CC3)n2)c(C)c1 [G_CC-001]	human B1R (Homo sapiens)	98
COc1cc(C)c(S(=O)(=O)N(C)CCOc2nccc(N3CCC(CCN4CCCC4)CC3)n2)c(C)c1 [Example G-001]	human B1R (Homo sapiens)	84
COc1cc(C)c(S(=O)(=O)N2CCCCC2COc2nccc(N3CCN(c4ccncc4)CC3)n2)c(C)c1 (stereo not shown) [G_CC-013]	human B1R (Homo sapiens)	100

Here's the next entry for you.
Query: Need inhibition at 10 µM, item COc1cc(C)c(S(=O)(=O)N(CCOc2nccc(N3CCC4(CC3)CCC(OCCN3CCCC3)(c3cccnc3)CC4)n2)C2CC2)c(C)c1 [Example G-023]
Response: 94

----------
Experimental Target: rat B1R (Rattus norvegicus, UniProt P97583)
Construct: expressed in transfected cells; host or cells: CHO K1 cells
Sequence (P97583 whole entry): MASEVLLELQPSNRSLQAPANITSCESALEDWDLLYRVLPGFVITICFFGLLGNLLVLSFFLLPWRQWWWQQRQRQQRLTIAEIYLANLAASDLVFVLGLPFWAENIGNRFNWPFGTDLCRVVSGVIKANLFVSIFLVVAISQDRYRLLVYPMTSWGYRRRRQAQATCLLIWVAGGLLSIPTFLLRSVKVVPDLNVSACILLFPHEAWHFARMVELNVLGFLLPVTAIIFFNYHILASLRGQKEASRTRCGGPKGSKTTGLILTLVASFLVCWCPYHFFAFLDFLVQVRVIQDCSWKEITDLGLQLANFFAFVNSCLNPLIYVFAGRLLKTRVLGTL
Experiment Description: FLIPR Ca2+ functional study on bradykinin receptor 1 (rB1R CHO K1 cells)
Type: cell-based
Experimental Conditions: % inhibition rat B1R at 10 μM
Tag: 1 if measured % inh. (rat B1R) 10 μM is not below 90%, 0 if it is.

Query: Is the recorded value of % inh. (rat B1R) 10 μM equal to or greater than 90% for this molecule? COc1cc(C)c(S(=O)(=O)N2CCCCC2COc2ccnc(N3CCN(CC4CCN(C)CC4)CC3)n2)c(C)c1 (stereo not shown) [H_CC-006]
Response: 0

Query: Does the molecule COc1cc(C)c(S(=O)(=O)N2c3ccccc3C[C@H]2COc2ccnc(N3CCN(CC4CCN(C)CC4)CC3)n2)c(C)c1 [H_CC-020] have recorded % inh. (rat B1R) 10 μM that is 90% or more?
Response: 1

Query: Reported % inh. (rat B1R) 10 μM at or above 90%? COc1cc(C)c(S(=O)(=O)N2CCC[C@H]2COc2ccnc(N3CCC4(CC3)C(=O)NCN4c3ccccc3)n2)c(C)c1 [H_CC-024]
Response: 1

Query: Check this molecule for % inh. (rat B1R) 10 μM at or above 90%: COc1cc(C)c(S(=O)(=O)N2CCC[C@@H]2COc2ccnc(N3CCCN(Cc4ccccn4)CC3)n2)c(C)c1 [H_CC-043]
Response: 0

Query: Reported % inh. (rat B1R) 10 μM at or above 90%? COc1cc(C)c(S(=O)(=O)N2CCCCC2COc2ccnc(N3CCC4(CCN(c5ccncc5)CC4)CC3)n2)c(C)c1 (stereo not shown) [H_CC-032]
Response: 1

Query: Given the entry COc1cc(C)c(S(=O)(=O)N2CCCCC2COc2ccnc(N3CCC(CCN4CCCCC4)CC3)n2)c(C)c1 (stereo not shown) [H_CC-022] , answer whether its % inh. (rat B1R) 10 μM meets or surpasses 90%.
Response: 0

Query: Tell me whether % inh. (rat B1R) 10 μM is at least 90% here: COc1cc(C)c(S(=O)(=O)N2CCC[C@H]2COc2ccnc(N3CCN(C4CCN(C)CC4)CC3)n2)c(C)c1 [H_CC-025]
Response: 0

Query: hey, is % inh. (rat B1R) 10 μM for this one >= 90%? COc1cc(C)c(S(=O)(=O)N2CCC[C@H]2COc2ccnc(N3CCC(CCN4CCCCC4)CC3)n2)c(C)c1 [H_CC-026]
Response: 0

Query: Answer whether % inh. (rat B1R) 10 μM of COc1cc(C)c(S(=O)(=O)N2CCC[C@H]2COc2ccnc(N3CCN(CC4CCN(C)CC4)CC3)n2)c(C)c1 [H_CC-012] is greater than or equal to 90%.
Response: 1

Query: Tell me whether % inh. (rat B1R) 10 μM is at least 90% here: COc1cc(C)c(S(=O)(=O)N(C)CCOc2nccc(N3CCC(CCN4CCCCC4)CC3)n2)c(C)c1 [G_CC-031]
Response: 1

Query: Entry COc1cc(C)c(S(=O)(=O)N2CCC[C@H]2COc2ccnc(N3CCC(c4nc(-c5ccncc5)no4)CC3)n2)c(C)c1 [H_CC-048] : is its % inh. (rat B1R) 10 μM no less than 90%?
Response: 0

Query: For this molecule, is measured % inh. (rat B1R) 10 μM 90% or higher? COc1cc(C)c(S(=O)(=O)N2CCCCC2COc2nccc(N3CCC(CCN4CCCCC4)CC3)n2)c(C)c1 (stereo not shown) [G_CC-026]
Response: 1

Query: Kindly determine if % inh. (rat B1R) 10 μM recorded for COc1cc(C)c(S(=O)(=O)N2CCC[C@H]2COc2nccc(N3CCC(CCN4CCCCC4)CC3)n2)c(C)c1 [G_CC-037] is above or exactly 90%.
Response: 1

Query: Kindly determine if % inh. (rat B1R) 10 μM recorded for COc1cc(C)c(S(=O)(=O)N2CCCC(Oc3nccc(N4CCC(CCN5CCCCC5)CC4)n3)C2)c(C)c1 (stereo not shown) [G_CC-027] is above or exactly 90%.
Response: 0

Query: % inh. (rat B1R) 10 μM >= 90% for COc1cc(C)c(S(=O)(=O)N2CCC[C@@H]2COc2nccc(N3CCC(CNC(=O)c4ccncc4)(N4CCN(C)CC4)CC3)n2)c(C)c1 [G_CC-054] ?
Response: 0

Query: Threshold query (% inh. (rat B1R) 10 μM >= 90%) on COc1cc(C)c(S(=O)(=O)N2c3ccccc3C[C@H]2COc2ccnc(N3CCC(CCN4CCCC4)CC3)n2)c(C)c1 [H_CC-017]
Response: 1

Query: Confirm if % inh. (rat B1R) 10 μM reported for the molecule COc1cc(C)c(S(=O)(=O)N(C)C(COc2nccc(N3CCN(C4CCN(C)CC4)CC3)n2)c2ccccc2)c(C)c1 (stereo not shown) [G_CC-059] is 90% or above.
Response: 1

Query: Does the molecule COc1cc(C)c(S(=O)(=O)N2CCC[C@H]2COc2nccc(N3CCC(Oc4ccncc4)CC3)n2)c(C)c1 [G_CC-052] have recorded % inh. (rat B1R) 10 μM that is 90% or more?
Response: 1

Query: Check the entry COc1cc(C)c(S(=O)(=O)N(C)CCOc2nccc(N3CCN(CC4CCN(C)CC4)CC3)n2)c(C)c1 [G_CC-007] : does % inh. (rat B1R) 10 μM equal or exceed 90%?
Response: 1

Query: Does the reported % inh. (rat B1R) 10 μM for COc1cc(C)c(S(=O)(=O)N2CCCCC2COc2ccnc(N3CCN(c4ccncc4)CC3)n2)c(C)c1 (stereo not shown) [H_CC-005] fall at or above the 90% mark?
Response: 1

Query: Is % inh. (rat B1R) 10 μM at least 90%? Consider COc1cc(C)c(S(=O)(=O)N2CCCCC2COc2ccnc(N3CCN(c4ncccn4)CC3)n2)c(C)c1 (stereo not shown) [H_CC-004]
Response: 0

Query: # bool: % inh. (rat B1R) 10 μM of COc1cc(C)c(S(=O)(=O)N2CC(Oc3ccnc(N(C)CCN4CCC(c5ccccc5)(N5CCCC5)CC4)n3)C2)c(C)c1 [H_CC-070] >= 90%
Response: 0

Query: Is % inh. (rat B1R) 10 μM at least 90%? Consider COc1cc(C)c(S(=O)(=O)N2CCCCC2COc2nccc(N3CCC(c4cccs4)(N(C)C)CC3)n2)c(C)c1 (stereo not shown) [G_CC-070]
Response: 1

----------
Experimental Target: human B1R (Homo sapiens, UniProt P46663)
Construct: expressed in transfected cells; host or cells: CHO K1 cells
Sequence (P46663 whole entry): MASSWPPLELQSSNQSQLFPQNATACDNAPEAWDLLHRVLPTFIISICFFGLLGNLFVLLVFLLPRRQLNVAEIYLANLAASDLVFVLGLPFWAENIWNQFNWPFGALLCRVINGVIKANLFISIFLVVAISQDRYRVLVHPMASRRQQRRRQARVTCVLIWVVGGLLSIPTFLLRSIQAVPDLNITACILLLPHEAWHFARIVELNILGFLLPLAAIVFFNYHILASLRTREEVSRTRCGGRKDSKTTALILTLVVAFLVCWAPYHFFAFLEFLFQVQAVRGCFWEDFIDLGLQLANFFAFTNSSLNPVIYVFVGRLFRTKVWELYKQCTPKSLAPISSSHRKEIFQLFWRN
Experiment Description: FLIPR Ca2+ functional study on bradykinin receptor 1 (hB1R CHO K1 cells)
Type: cell-based
Experimental Conditions: % inhibition human B1R at 10 μM, read-out: % inh. (hum. B1R) 10 μM
Measurement Name: inhibition at 10 µM (%)
Give just the numeric value; % need not be written.

Compound	inhibition at 10 µM / %
COc1cc(C)c(S(=O)(=O)N(CCOc2cc(N3CCC4(CCN(c5ccncc5)CC4)CC3)ncn2)C2CC2)c(C)c1 [Example I-001]	98
COc1cc(C)c(S(=O)(=O)N(C)CCOc2nccc(N3CCN(c4ccncc4)CC3)n2)c(C)c1 [Example G-002]	97
COc1cc(C)c(S(=O)(=O)N(C)CCOc2ccnc(N3CCN(c4ccncc4)CC3)n2)c(C)c1 [Example H-002]	81

Then this compound:
Query: Param item = COc1cc(C)c(S(=O)(=O)N(CCCOc2nccc(N3CCC4(CCN(c5ccncc5)CC4)CC3)n2)C2CC2)c(C)c1 [Example G-025] ; retrieve measured inhibition at 10 µM.
Response: 92
